Parameter: CLint in vitro. Scope: all listed entries.
- test.conditions: mouse, microsomes, 1 µM
- Description: DNDI: in vitro intrinsic clearance in mouse liver microsomes at a concentration of 1uM
property: CLint in vitro (µL/min/mg)

compound | value.unit | result.value
CCc1ccccc1N/C(=N\O)c1ccccc1-c1ccccc1 | µL/min/mg | 209
CCCCCC(C)NCc1coc(-c2ccc(C(C)(C)C)cc2)n1 (stereo unspecified) | µL/min/mg | 17
CCOc1ccc(-c2nc(CNC3C[C@@H]4C[C@H]([C@H]3C)C4(C)C)co2)cc1 (stereo partly specified) | µL/min/mg | 207
COc1ccc(/C(CNC2CCCCC2)=N/O)cc1 | µL/min/mg | 224
CCCCCC(C)NCc1coc(-c2cccc(Oc3ccccc3)c2)n1 (stereo unspecified) | µL/min/mg | 14
O/N=C(\NC1CCCCC1)c1ccc(F)cc1 | µL/min/mg | 53
Cc1ccc(/C(=N/O)NC2CCCCC2)c(Oc2ccc(C(C)(C)C)cc2)n1 | µL/min/mg | 98.83
CCc1ccc(/C(=N/O)NC2CCCCC2)cc1 | µL/min/mg | 210
CCCCCC(C)NCc1coc(-c2ccc(OCC(C)C)cc2)n1 (stereo unspecified) | µL/min/mg | 9
CCCCCC(C)NCc1coc(-c2ccc(OC(CC)CC)cc2)n1 (stereo unspecified) | µL/min/mg | 2
CCCCc1ccc(-c2nc(CNCCC3CCCN3C)co2)cc1 (stereo unspecified) | µL/min/mg | 23

###

- assay.name: DNDI: Cytotoxicity against L929 mouse fibroblasts, 72 hour.
- Type: toxicity, cell-based
- test.conditions: mouse, L929 mouse fibroblasts
Documented IC50 at 72 h across a set of molecules

molecule | IC50 at 72 h
CCCCCOc1ccc(-c2nc(CNC3CCCCCC3)co2)cc1 | < 3.13 µg/mL
CCCCCC(C)NCc1coc(-c2cccs2)n1 (stereo not given) | 13.5 µg/mL
CC(C)(C)c1ccc(-c2nc(CNC3CCCCCC3)co2)cc1 | < 3.13 µg/mL
COc1ccc(S(=O)(=O)Nc2ccccn2)cc1OC | > 10 µg/mL
CC(C)(C)c1ccc(-c2nc(CNC3[C@H]4C[C@@H]5C[C@@H](C[C@H]3C5)C4)co2)cc1 (stereo not given in full) | 13 µg/mL

###

- test.conditions: mouse, microsomes, 1 µM

molecule | CLint in vitro / µL/min/mg
CCCCCC(C)NCc1coc(-c2ccc(OCc3ccccc3)cc2)n1 (centres undefined) | 9
CCC(C)C(NCc1ccccc1OC)c1nc(-c2ccccc2)c(N2CCCCC2)o1 (centres undefined) | 227
c1cc(-c2nc(CNC3CCCCCC3)co2)ccc1OC1CCCCC1 | 11
COc1ccc(CNC(CCc2ccccc2)c2nc(Cc3ccccc3)c(N3CCCCC3)o2)cc1OC (centres undefined) | 354
CCCCCC(C)NCc1coc(-c2ccc(C)c(OC)c2)n1 (centres undefined) | 87
CCCCc1ccc(-c2nc(CNC(C)C)co2)cc1 | 50
COc1ccc(N/C(=N/O)c2ccc(OC)cc2)cc1 | 376
CCOc1ccc(-c2nc(CNC[C@@H]3CC[C@H]4C[C@@H]3C4(C)C)co2)cc1 | 86
Cc1ccc(Cc2ccccc2/C(=N/O)NC2CCCCC2)cc1 | 318
CCCCOc1ccc(-c2nc(CNC3CC(C)CC(C)(C)C3)co2)cc1 (centres undefined) | 8
O/N=C(/NC1CCCCC1)c1cccnc1Oc1ccc(F)cc1 | 389
CCCCc1ccc(-c2nc(CNC(C)CC)co2)cc1 (centres undefined) | 42
CCc1cccc(N/C(=N/O)c2ccc(OC)cc2)c1 | 470
COc1ccc(/C(=N/O)Nc2ccc(F)cc2)cc1 | 118
